Target: SARS-CoV S protein (Urbani strain) expressed on ExpiCHO cells (SARS-CoV, UniProt P59594 14-1255)
Assay: flow cytometry on ExpiCHO cells transfected with SARS-CoV S
Measured attribute: binding result

[[record]]
binder = "nCoV-19 mAb (antibody, V domains shown) VH: QVKLVESGGGVVQPGRSLRLSCAASGFTFSSNAMHWVRQTPGKGLEWVALISYDERNKYYAESVKGRFTISRDNSKNTLYLQMNSLRHEDTAVYYCARDLQMRVVVVSNFDYWGQGTLVTVSS VL: DVVMTQSPLSLPVTLGQPASISCRSSQSLVYSDGNTYLNWFQQRPGQSPRRLIYEVSNWDSGVPDRFSGSGSGTDFTLKISRVEAEDVGVYYCMQATHWPPTFGQGTKLEIK"
reported_value = "binds"

[[record]]
binder = "nCoV-7 mAb (antibody, V domains shown) VH: QEQVVESGGGVVQPGKSLRLSCAASGFSLNDFAIHWVRQAPGKRLEWVAIISYDGRVKFYADSVKGRFTISRDSSVHLQMDSLRPEDTGLYYCARDSSWQSTGWPINWFDRWGRGTLVTVSS VL: EIVLTQSPATLSLSPGQRATLSCRASQSVLSSLAWYQHKPGQAPRLLIYDASSRATGVPARFSGSGSETDFTLTISSLEPEDFAVYYCQQRSNWPPTFGQGTKVEIK"
reported_value = "binds"

[[record]]
binder = "nCoV-3 mAb (antibody, V domains shown) VH: EVQLLESGGGLVQPGGSLRLSCTASGFTFASYAMTWVRQAPGKGLEWVSTISGGGGDTYSADSVKGRFTISRDNSKSTLYLQMNSLRAADTALYYCARLESATQPLGYYFYGMDVWGQGTTVTVSS VL: SYELTQPPSVSVSPGQTARITCSGDALPKQYAFWYQQRPGQAPVLVISKDSERPSGIPERFSGSSSGTTVTLTISGVQAEDEADYYCHSADISATSWVFGGGTKLTVV"
reported_value = "binds"

[[record]]
binder = "nCoV-6 mAb (antibody, V domains shown) VH: QVTLKESGPVLVKPTETLTLTCTVSVFSLSNARMGVSWIRQPPGKALEWLAHIFSSDQKSYSTSLKSRLTISKDTSKSQVVLTMTNMDPEDTGTYYCARINTAAYDYDSTTFDIWGQGTMVTVSS VL: DIQMTQSPSSLSASVGDRVTITCRASQTISNYLNWYQQKPGKAPKLLLYAASSLQSGVPSRFSGSGSGTDFTLTISSLQLEDFATYYCQQSYSTPPTFGGGTKVEIK"
reported_value = "binds"

[[record]]
binder = "nCoV-15 mAb (antibody, V domains shown) VH: EVQLVESGGGLVTPGRSLRLSCTASGFTFGDYALSWFRQAPGKGLEWVAFIRSKAYGGTTEYAASVKGRFTISRDDSQIIVYLQMDSLKTEDTAVYYCSWIHRIVSWGQGTLVTVSS VL: DIQMTQSPSSLSASEGDRVTITCQASQDISIYLNWFQQKPGKAPKLLIYEASNLKTGVPSRFSGSGSGTDFTFTISSLQPEDIATYYCQQYDNLPYTFGQGTKLEIK"
reported_value = "binds"

[[record]]
binder = "nCoV-18 mAb (antibody, V domains shown) VH: QVQLVQSGAEVRQPGTSVKVSCKASGYTFMNNDITWVRQAPGQVLQWMGWIRPSNGNTNYAQKFQGRVTLTTDTSTNTAHMELRSLKSDDTAVYYCARQSHSTRGGWHFSPWGQGTLVTVSS VL: DIQMTQSPSSLSASVGDRVTITCRPSQPISYFLNWYQQTPGKAPKLLIYAASSLQSGVPSRFSGSGSGTDFTLTISSLQPEDSATYYCQQSYSVPYTFGQGTKLEIK"
reported_value = "binds"

